# Assayed Target: T1, human B7-H4 extracellular domain (human, UniProt Q7Z7D3 29-258)
# T1 construct: For SPR it says only human B7-H4 ECD; also called Hu B7-H4 ECD; huB7-H4 ECD
# T1 sequence: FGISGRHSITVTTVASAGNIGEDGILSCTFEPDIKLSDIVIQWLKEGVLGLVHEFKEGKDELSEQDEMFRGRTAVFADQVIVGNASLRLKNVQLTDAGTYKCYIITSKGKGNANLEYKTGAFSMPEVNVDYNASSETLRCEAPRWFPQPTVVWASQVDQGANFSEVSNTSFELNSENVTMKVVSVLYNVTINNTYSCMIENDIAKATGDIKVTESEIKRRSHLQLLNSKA
# Assay Procedure: SPR Biacore 8K 25 C; mAb captured on anti-human Fc, huB7-H4 ECD analyte, 1:1 fit;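 further: antibodies tested as IgG1, running buffer HBS-EP+ at pH 7.4, rate constants and affinity from a 1:1 Langmuir model fit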
Observation Type: Kd (nM)
All answers are understood in nM, so give the number only.

| Binder | Kd [nM] |
| --- | --- |
| B7-H4 antibody 0051 (antibody, human IgG1, kappa, V domains shown, also called 27C12) VH: EVQLLESGGGLVQPGGSLRLSCAASGFTFSSYAMSWVRQAPGKGLEWVSSISGNGGSTYYADSVKGRFTISRDNSKNTLSLQMNSLRAEDTAVYYCAKVGWRTGDYWGQGTLVTVSS VL: DIQLTQSPSTLSASVGDRVTITCRASQSISSWLAWYQQKAGKAPKLLIYKASDLESGVPSRFSGSGSGIEFTLTISSLQPDDFATYYCQQYNSYSWTFGQGTKVEIKR | 0.57 |
| B7-H4 antibody 0049 (antibody, human IgG1, kappa, V domains shown, also called 13F4) VH: EVQLLESGGGLVQPGGSLRLSCAASGFTFSSYAMSWVRQAPGKGLEWVSAISGSGGSTYYADSVKGRFTISRDNSKNTLFLHMNSLRAEDTAVYYCARDIQWFGESVFDYWGQGTLVTVSS VL: DIQMTQSPSTLSASVGDRVTITCRASQSISSWLAWYQQKPGKAPKLLIYKASSLESGVPSRFSGNGSGTEFTLTISSLQPDDLATYYCQYYNSYSRTFGQGTKVEIKR | 1.85 |
| B7-H4 antibody 0052 (antibody, human IgG1, kappa, V domains shown, also called 28D10) VH: QVQLQQWGAGLLKPSETLSLTCAVYGGSFSGYYWNWIRQPPGKGLEWIGEINHSGSTKYNPSLKSRVTISGDTSKNQFSLKLNSVTAADTAVYYCVRGLYNWNVDSWGQGTLVTVSS VL: DIQMTQSPSSLSASVGDRVTITCRASQGIRNDLGWYQQKPGKAPKRLIYVASSLQSGVPSRFSGSGSGTEFTLTISSLQPEDFATYYCLQHNSYPYTFGQGTKLEIKR | 7.83 |
| B7-H4 antibody 0061 (antibody, human IgG1, kappa, V domains shown, also called 46E10) VH: QVQLQQWGAGLLKPSETLSLTCAVYGGSFSGYFWSWIRQPPGKGLEWIGEFNHSGGTNSNPSLKSRVTMSVDTSKNQFSLKLSSVTAADTAVYFCARAGGDYGFYYYYGLDVWGQGTTVTVSS VL: DIQLTQSPSTLSASVGDRVTITCRASQSISSWLAWYQQKPGKAPELLVYKASRLESGVPSRFSGSGSGTEFTLTISSLQPDDFATYYCQQYNSYFGGGTKVEIKR | 0.84 |
| B7-H4 antibody 0057 (antibody, human IgG1, kappa, V domains shown, also called 34A3) VH: EVQLLESGGGLVQPGGSLRLSCAASGFTFSSYAMSWVRQAPGKGLEWVSAISGRGGSTYYTDSVKGRFTISRDNSRNTLYLQMNILRAEDTAVYYCARDLQWFGESTLFDYWGQGTLVTVSS VL: DIQLTQSPSTLSASVGDRVTITCRASQSISAWLAWFQQKPGKAPKLLIYKASSLESGVPSRFSGSGSGTEFTLTISSLQPDDFATYYCQQYNSYSRSFGQGTKLEIKR | 7.92 |

Fill in: Kd of B7-H4 antibody 0047 (antibody, human IgG1, kappa, V domains shown, also called 7H7) VH: QVQLQQWGAGLLKPSETLPLTCAVYGGSFSGYYWNWIRQPPGKGLEWIGEINHSGSATYNPSLKSRVTISVDTSKNHFSLKLSSVTAADTAVYFCARGLYNWNVDHWGQGTLVTVSS VL: DIQMTQSPSSLSASVGDRVTITCRASQGIRNDLGWYQQKPGKAPKRLIYAASSLQSGVPSRFSGSGSGTEFTLTISSLQPEDFATYYCLQHNSYPRTFGGGTKVEIKR is ___
3.79

Consider next the binder B7-H4 antibody 0053 (antibody, human IgG1, kappa, V domains shown, also called 29G6) VH: QVQLQQWGAGLLKPSETLSLTCAVYGGPFSGYFWSWIRQPPGKGLEWIGEINHSGNTNYNPSLKSRVTISVDTSKNQFSLKLSSVTAADTAVYYCARAGGDYGFYYYYGMDVWGQGTTVTVSS VL: DIQLTQSPSTLSASVGDRVTITCRASQSISSWLAWYQQKPGKAPELLVYKASRLESGVPSRFSGSGSGTEFTLTISSLQPDDFATYYCQQYNSYFGGGTKVEIKR in the same way.
0.74
